Property: GI50; scope: individual compounds
System: OVCAR-3
Assay: NCI tumour cell line growth inhibition, 48 h
The source made the active and inactive calls. Cut-off read from the data, not from the text of the source: active = GI50 up to about 1.1 µM and inactive = higher.
experimental_endpoint: GI50

1. CC1=NN2C(c3ccc(C)cc3)=CSC2=NC(C)(C)C1: > 100 µM (inactive)
2. CC[N+]1(C)CCC(O)(c2ccc(Cl)cc2)C(C(=O)c2ccc(Cl)cc2)C1 (stereo not drawn): 20.5 µM (inactive)
3. O=C(CSC1=NCCN1)Nc1ccccc1: 20.7 µM (inactive)
4. CCOC(=O)c1cc2nc3ccccc3c(=O)n2c2ccccc12: > 10 µM (inactive)
5. O=c1n(CC2CO2)c2ccccc2n1CC1CS1 (stereo not drawn): 78.7 µM (inactive)
6. COC1(OC)N=C(N)C2(C#N)C(C)=C3NCN(C)N=C3C12C#N (stereo not drawn): > 100 µM (inactive)
7. COc1ccc2c(c1)SC1=Nc3sc4cc(OC)ccc4[n+]3CN12: 2.72 µM (inactive)
8. COc1cc2oc(=O)cc(C)c2cc1OC: > 100 µM (inactive)
